// reported inhibition at 100 µM for each item listed
- test.system: SARS-CoV-2-PLpro enzyme (Severe acute respiratory syndrome coronavirus 2, UniProt P0DTD1)
- procedure.text: SARS-CoV-2-PLpro enzyme inhibition assay
- Format: biochemical
- condition.description: read-out: Percent inhibition
Square brackets hold non-standard residues; d marks the D form. Peptide text beside a SMILES is read from it.
Please respond with the number in % and leave the unit unwritten.

| compound | obs.value |
| --- | --- |
| CC(C)C[C@@H](NC(=O)[C@@H](N)CO)C(=O)N[C@@H](CCCCN)C(=O)NCC(=O)NCC(=O)O [Ser - Leu - Lys - Gly - Gly] (H-S[dL]KGG-OH) | 0 |

Now take the following compound into account.
Give measured inhibition at 100 µM for CC(C)C[C@@H](NC(=O)[C@@H](N)CCC(=O)O)C(=O)N[C@@H](CC(N)=O)C(=O)NCC(=O)NCC(=O)O [Glu - Leu - Asn - Gly - Gly] (H-E[dL]NGG-OH) (SARS-CoV-2-PLpro enzyme (Severe acute respiratory syndrome coronavirus 2, UniProt P0DTD1)). 0
